Entry source: patent US9440957B2

Target: HaCaT (EGFR WT) (Homo sapiens)
Sequence (P00533 25-1210): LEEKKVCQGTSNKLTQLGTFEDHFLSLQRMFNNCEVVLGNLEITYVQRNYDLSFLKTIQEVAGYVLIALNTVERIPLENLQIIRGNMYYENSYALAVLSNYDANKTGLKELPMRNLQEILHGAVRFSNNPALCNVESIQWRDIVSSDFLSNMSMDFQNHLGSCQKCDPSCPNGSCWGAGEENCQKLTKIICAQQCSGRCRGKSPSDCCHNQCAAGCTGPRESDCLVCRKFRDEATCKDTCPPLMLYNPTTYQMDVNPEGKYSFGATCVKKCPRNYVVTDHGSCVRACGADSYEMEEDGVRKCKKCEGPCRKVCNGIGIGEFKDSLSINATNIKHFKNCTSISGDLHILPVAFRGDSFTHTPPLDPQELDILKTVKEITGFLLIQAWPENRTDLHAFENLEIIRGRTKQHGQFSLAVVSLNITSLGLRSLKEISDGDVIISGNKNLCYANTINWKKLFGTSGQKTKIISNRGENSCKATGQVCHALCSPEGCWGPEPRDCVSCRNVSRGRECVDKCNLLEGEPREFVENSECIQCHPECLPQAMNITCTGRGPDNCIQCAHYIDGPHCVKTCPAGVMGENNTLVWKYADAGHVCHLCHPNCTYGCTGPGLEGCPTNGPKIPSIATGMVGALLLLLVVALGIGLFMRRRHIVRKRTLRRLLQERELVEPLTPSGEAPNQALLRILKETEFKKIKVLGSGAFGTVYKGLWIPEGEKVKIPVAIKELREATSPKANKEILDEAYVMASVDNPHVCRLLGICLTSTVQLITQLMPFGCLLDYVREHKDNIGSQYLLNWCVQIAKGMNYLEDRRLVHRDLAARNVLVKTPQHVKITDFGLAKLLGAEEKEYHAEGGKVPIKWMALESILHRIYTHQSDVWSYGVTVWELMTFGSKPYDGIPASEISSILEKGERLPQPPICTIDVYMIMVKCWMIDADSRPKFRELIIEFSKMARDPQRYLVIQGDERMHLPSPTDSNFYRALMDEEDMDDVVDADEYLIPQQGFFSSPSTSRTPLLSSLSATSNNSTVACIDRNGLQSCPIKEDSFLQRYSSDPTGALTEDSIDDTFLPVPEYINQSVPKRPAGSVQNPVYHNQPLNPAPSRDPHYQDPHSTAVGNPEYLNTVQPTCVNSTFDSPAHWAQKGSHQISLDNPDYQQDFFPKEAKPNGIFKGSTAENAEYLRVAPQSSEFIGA
Assay: EGFR target modulation in HaCaT (EGFR-WT) cell line (phospho-EGFR Y1173 ELISA)
Conditions: value in parentheses
Experimental: EGFR Target Modulation in HaCaT (EGFR-WT) Cell Line Tissue Culture. […] The serial diluted compounds were transferred to the plate containing cells by using a 50 nl Pin Head device (Perkin Elmer) and the cells were placed back in the incubator for 3 hours. […] Phospho-EGFR ([…]) ELISA. […] Signal was read on EnVision plate reader using built-in UltraLUM setting. […] With these parameters, the IC50's for each compound in each cell line was calculated using non-linear curve fitting analysis.
pIC50: −log10 of the molar value.
measurementKind: pIC50

>>> reported("Cc1cc(C(=O)Nc2nc3cccc(C(F)(F)F)c3n2[C@@H]2CCCCN(C(=O)/C=C/CN(C)C)C2)ccn1 [Example 17-187]")
6.32

1 = C=CC(=O)N1CCCC[C@@H](n2c(NC(=O)c3cc(C)nc(C)c3)nc3cc(CN4CCN(C(C)=O)CC4)cc(C)c32)C1 [Example 17-181]
2 = C/C=C/C(=O)N1CCCC[C@@H](n2c(NC(=O)c3cc(C)nc(C)c3)nc3ccc(OCCN4CCCC4)c(Cl)c32)C1 [Example 17-195]
# input Hi team, can someone confirm which has the larger pIC50: 1 or 2 ? Thanks. Use the label to indicate which entry you chose.
# output 1
(1: 7.11, 2: 5.15)

---

Biological target: HEKn (EGFR WT) (Homo sapiens)
Test: EGFR target modulation in HEKn (EGFR-WT) cell line (phospho-EGFR Y1173 ELISA)
Details: value outside parentheses
Protocol: EGFR Target Modulation in HEKn (EGFR-WT) Cell Line Tissue Culture. Human neonatal epithelial keratinocytes (Invitrogen #C-001-5C) were maintained in EpiLife media (Invitrogen #[…]) supplemented with growth factors (Invitrogen #S-001-5). […] Signal was read on EnVision plate reader using built-in UltraLUM setting. […] With these parameters, the IC50's for each compound in each cell line was calculated using non-linear curve fitting analysis.
pIC50: −log10 of the molar value.
measurementKind: pIC50

>>> reported("Cc1ccccc1-c1cc(C(=O)Nc2nc3cccc(C)c3n2[C@@H]2CCCCN(C(=O)/C=C/CN(C)C)C2)ccn1")
8.40

I = Cc1cc(C(=O)Nc2nc3cccc(Cl)c3n2[C@@H]2CCCCN(C(=O)/C=C/CN3CCC(F)(F)C3)C2)ccn1
II = COc1cc(C(=O)Nc2nc3cccc(C)c3n2[C@@H]2CCCCN(C(=O)/C=C/CN(C)C)C2)cc(Cl)n1
III = Cc1cccc2nc(NC(=O)c3ccnc(C(F)(F)F)c3)n([C@@H]3CCCCN(C(=O)/C=C/CN(C)C)C3)c12
# input Please rank these compounds by pIC50 in descending order. Form field (ranking): labels in requested order.
# output III, II, I
(III: 7.09, II: 5.50, I: 5.19)

I = Cc1cccc2nc(NC(=O)c3cc(F)ccc3F)n(C3CCCCN(C(=O)/C=C/CN(C)C)C3)c12 (stereo not shown)
II = C/C=C/C(=O)N1CCCC[C@@H](n2c(NC(=O)c3cc(C)nc(C)c3)nc3cc(CN4CC[C@H](F)C4)cc(C)c32)C1
# input Hi team, can someone confirm which has the larger pIC50: I or II ? Thanks. Use the label to indicate which entry you chose.
# output I
